experimental-target: Kappa-type opioid receptor (Homo sapiens, UniProt P41145)
Sequence (P41145 whole entry): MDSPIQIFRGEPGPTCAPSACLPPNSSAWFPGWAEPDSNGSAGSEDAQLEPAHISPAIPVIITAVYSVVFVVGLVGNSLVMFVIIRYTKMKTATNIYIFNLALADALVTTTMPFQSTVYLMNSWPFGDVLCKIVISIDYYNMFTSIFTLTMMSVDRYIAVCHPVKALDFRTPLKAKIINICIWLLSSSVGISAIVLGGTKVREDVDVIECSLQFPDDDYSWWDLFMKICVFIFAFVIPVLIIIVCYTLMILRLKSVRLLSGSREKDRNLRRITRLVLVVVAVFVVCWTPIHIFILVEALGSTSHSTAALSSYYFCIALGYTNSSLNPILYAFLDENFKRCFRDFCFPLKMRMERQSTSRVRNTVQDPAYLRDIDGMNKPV
protocol: Receptor selectivity index is the ratio of the apparent KI at kappa opioid receptor over the apparent KI at the highest affinity site
parameter: Ratio

Quick note, Ratio for `CC(C)C[C@H](NC(=O)[C@H](Cc1ccccc1)NC(=O)[C@@H](Cc1c[nH]c2ccccc12)NC(=O)CNC(=O)[C@@H](N)Cc1ccc(O)cc1)C(=O)N[C@@H](CCCN=C(N)N)C(=O)N[C@@H](CCCN=C(N)N)C(=O)N[C@H](Cc1c[nH]c2ccccc12)C(=O)N[C@@H](CCCN=C(N)N)C(=O)N1CCC[C@@H]1C(=O)N[C@@H](CCCCN)C(=O)O` landed at 1

Sure, the documented Ratio for `NCCCC[C@H](NC(=O)[C@H]1CCCN1C(=O)[C@H](CCCN=C(N)N)NC(=O)[C@@H](Cc1c[nH]c2ccccc12)NC(=O)[C@H](CCCN=C(N)N)NC(=O)[C@H](CCCN=C(N)N)NC(=O)[C@@H](Cc1c[nH]c2ccccc12)NC(=O)[C@H](Cc1ccccc1)NC(=O)CNC(=O)CNC(=O)[C@@H](N)Cc1ccc(O)cc1)C(=O)O` is 1

Per the record, `CC(C)C[C@H](NC(=O)[C@@H](Cc1c[nH]c2ccccc12)NC(=O)CNC(=O)CNC(=O)[C@@H](N)Cc1ccc(O)cc1)C(=O)N[C@@H](CCCN=C(N)N)C(=O)N[C@@H](CCCN=C(N)N)C(=O)N[C@H](Cc1c[nH]c2ccccc12)C(=O)N[C@@H](CCCN=C(N)N)C(=O)N1CCC[C@@H]1C(=O)N[C@@H](CCCCN)C(=O)O` has Ratio of 1

// field: Ratio; key: `CC(C)C[C@H](NC(=O)[C@H](Cc1ccccc1)NC(=O)CNC(=O)[C@@H](Cc1c[nH]c2ccccc12)NC(=O)[C@@H](N)Cc1ccc(O)cc1)C(=O)N[C@@H](CCCN=C(N)N)C(=O)N[C@@H](CCCN=C(N)N)C(=O)N[C@H](Cc1c[nH]c2ccccc12)C(=O)N[C@@H](CCCN=C(N)N)C(=O)N1CCC[C@@H]1C(=O)N[C@@H](CCCCN)C(=O)O` ; value = 1.5

Data point: `CC(C)C[C@H](NC(=O)[C@H](Cc1ccccc1)NC(=O)CNC(=O)CNC(=O)[C@@H](N)Cc1ccc(O)cc1)C(=O)N[C@@H](CCCN=C(N)N)C(=O)N[C@@H](CCCN=C(N)N)C(=O)N[C@H](Cc1c[nH]c2ccccc12)C(=O)N[C@@H](CCCN=C(N)N)C(=O)N1CCC[C@@H]1C(=O)N[C@@H](CCCCN)C(=O)O` ; Ratio = 1

The measured Ratio associated with `CC(C)C[C@H](NC(=O)[C@@H](Cc1c[nH]c2ccccc12)NC(=O)CNC(=O)[C@@H](Cc1c[nH]c2ccccc12)NC(=O)[C@@H](N)Cc1ccc(O)cc1)C(=O)N[C@@H](CCCN=C(N)N)C(=O)N[C@@H](CCCN=C(N)N)C(=O)N[C@H](Cc1c[nH]c2ccccc12)C(=O)N[C@@H](CCCN=C(N)N)C(=O)N1CCC[C@@H]1C(=O)N[C@@H](CCCCN)C(=O)O` reads 1
